B1: library; a variant is named by its letters at N, in order (parent)
chain: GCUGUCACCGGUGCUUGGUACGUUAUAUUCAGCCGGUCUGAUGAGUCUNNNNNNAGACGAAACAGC

Variants of: B1
Experiment: normalized RNA/DNA level with ligand (relative to sTRSVctl = 100) (log10 (% of sTRSVctl)); HEK293T overexpressing SLC46A1; ligand concentration (+) RNA-Seq: 6 mM; higher = less ribozyme self-cleavage, higher mRNA level
Settings: with (6R,S)-folinic acid; ligand present: yes
The label depends only on normalized RNA/DNA level with ligand (log10): TRUE if it is at least 2, FALSE if it is smaller.

Recorded results for 5 variants are shown here.
sequence_entry	answer_label
GCUGUCACCGGUGCUUGGUACGUUAUAUUCAGCCGGUCUGAUGAGUCUCCCCUAAGACGAAACAGC	TRUE
GCUGUCACCGGUGCUUGGUACGUUAUAUUCAGCCGGUCUGAUGAGUCUUGUAAGAGACGAAACAGC	FALSE
GCUGUCACCGGUGCUUGGUACGUUAUAUUCAGCCGGUCUGAUGAGUCUCCCUACAGACGAAACAGC	TRUE
GCUGUCACCGGUGCUUGGUACGUUAUAUUCAGCCGGUCUGAUGAGUCUCACGAAAGACGAAACAGC	FALSE
GCUGUCACCGGUGCUUGGUACGUUAUAUUCAGCCGGUCUGAUGAGUCUCCCUGCAGACGAAACAGC	TRUE

// inclusive: normalized RNA/DNA level with ligand (log10) at least 2? input: GCUGUCACCGGUGCUUGGUACGUUAUAUUCAGCCGGUCUGAUGAGUCUAGCUGGAGACGAAACAGC
TRUE
